All values here come from patent US20180185504A1.

# Assayed System: T1, macaca fascicularis (mf) PRLR.mmh (soluble monomeric monkey PRLR) (Macaca fascicularis)
# T1 construct: called soluble monomeric PRLR protein
# T1 chain: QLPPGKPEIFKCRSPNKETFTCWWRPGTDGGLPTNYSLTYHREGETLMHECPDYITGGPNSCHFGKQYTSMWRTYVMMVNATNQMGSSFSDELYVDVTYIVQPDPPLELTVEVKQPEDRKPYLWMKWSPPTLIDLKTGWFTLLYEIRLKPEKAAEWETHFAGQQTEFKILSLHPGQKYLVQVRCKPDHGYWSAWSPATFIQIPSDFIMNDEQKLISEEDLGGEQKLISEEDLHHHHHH
# Assay Details: SPR Biacore, 25 C, mAb capture
Observable: kon (M⁻¹ s⁻¹)
One number for each entry, in M⁻¹ s⁻¹.

Consider the reported kon for these binders:
Task item: I'd like to know its kon. The binder in question is H1H6960N (antibody, human IgG1, V domains shown, Tested with human IgG1 Fc (H1H); also called H2M6960N) VH: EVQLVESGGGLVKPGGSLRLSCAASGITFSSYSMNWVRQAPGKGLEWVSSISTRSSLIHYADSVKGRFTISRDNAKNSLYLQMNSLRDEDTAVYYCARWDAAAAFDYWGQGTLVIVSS VL: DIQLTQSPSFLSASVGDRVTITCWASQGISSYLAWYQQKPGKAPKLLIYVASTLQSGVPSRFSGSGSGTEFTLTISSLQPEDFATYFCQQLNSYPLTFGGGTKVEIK
Reply: 94000

Task item: I'd like to know its kon. The binder in question is H1H6782P (antibody, human IgG1, V domains shown, Human IgG1 Fc (H1H)) VH: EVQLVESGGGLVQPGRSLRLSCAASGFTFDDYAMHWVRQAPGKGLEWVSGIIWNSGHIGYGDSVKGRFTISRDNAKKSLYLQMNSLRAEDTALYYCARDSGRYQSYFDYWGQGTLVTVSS VL: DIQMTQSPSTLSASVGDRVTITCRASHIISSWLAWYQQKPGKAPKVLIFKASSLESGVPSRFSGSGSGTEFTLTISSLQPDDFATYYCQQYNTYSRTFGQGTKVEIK
Reply: 266000

Now look at this entry.
Task item: I'd like to know its kon. The binder in question is H1H6967N (antibody, human IgG1, V domains shown, Tested with human IgG1 Fc (H1H); also called H2M6967N) VH: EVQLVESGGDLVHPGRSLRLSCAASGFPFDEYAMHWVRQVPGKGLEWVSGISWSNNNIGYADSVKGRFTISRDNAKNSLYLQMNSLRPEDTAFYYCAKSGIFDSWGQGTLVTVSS VL: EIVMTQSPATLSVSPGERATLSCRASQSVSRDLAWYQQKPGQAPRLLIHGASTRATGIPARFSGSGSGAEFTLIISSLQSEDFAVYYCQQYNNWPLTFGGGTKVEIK
Reply: 190000
